Value source: patent US12447153B2

Target: ErbB2 with Exon 20 YVMA insertion (HER2-YVMA) (Homo sapiens (Human), UniProt P04626, INS775YVMA)
Sequence (P04626 other isoform, or with tags, fused parts or gaps ins YVMA behind 775): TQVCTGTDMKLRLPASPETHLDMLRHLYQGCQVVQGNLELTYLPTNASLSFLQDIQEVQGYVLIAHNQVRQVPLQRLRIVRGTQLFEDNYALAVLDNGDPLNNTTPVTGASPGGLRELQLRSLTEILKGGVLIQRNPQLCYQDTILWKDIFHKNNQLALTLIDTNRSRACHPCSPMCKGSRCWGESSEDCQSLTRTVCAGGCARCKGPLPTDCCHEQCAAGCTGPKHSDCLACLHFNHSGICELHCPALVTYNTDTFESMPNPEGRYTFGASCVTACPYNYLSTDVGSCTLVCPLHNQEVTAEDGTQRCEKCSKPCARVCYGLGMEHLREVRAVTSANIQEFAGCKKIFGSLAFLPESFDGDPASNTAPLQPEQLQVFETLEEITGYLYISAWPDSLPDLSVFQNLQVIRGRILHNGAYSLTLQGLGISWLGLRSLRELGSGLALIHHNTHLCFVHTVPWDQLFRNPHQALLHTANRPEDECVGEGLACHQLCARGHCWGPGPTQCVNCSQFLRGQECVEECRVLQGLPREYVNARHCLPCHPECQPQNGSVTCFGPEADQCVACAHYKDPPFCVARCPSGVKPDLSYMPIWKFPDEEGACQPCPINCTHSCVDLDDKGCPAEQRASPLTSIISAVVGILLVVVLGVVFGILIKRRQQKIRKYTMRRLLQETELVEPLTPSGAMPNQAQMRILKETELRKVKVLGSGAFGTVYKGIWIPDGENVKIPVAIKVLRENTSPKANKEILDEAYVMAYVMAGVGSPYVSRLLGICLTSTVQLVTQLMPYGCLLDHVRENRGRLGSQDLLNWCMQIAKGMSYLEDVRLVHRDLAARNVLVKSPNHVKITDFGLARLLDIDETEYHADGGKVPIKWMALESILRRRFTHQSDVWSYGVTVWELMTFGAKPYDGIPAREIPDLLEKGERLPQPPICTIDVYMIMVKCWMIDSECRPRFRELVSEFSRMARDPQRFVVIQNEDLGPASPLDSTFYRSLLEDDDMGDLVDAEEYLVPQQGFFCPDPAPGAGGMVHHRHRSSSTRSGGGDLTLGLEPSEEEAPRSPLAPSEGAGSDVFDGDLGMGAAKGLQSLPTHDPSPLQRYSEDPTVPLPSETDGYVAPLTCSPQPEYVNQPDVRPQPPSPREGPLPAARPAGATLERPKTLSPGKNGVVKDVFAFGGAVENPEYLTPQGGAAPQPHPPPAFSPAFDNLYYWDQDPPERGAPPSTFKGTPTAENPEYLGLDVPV
Assay: Cellular Phosphorylation Assay, Assay 4 (constitutive ErbB2 phosphorylation, NIH 3T3 cells)
Format: cell-based
Conditions: cellular ErbB2 YVMA phosphorylation
Method: NIH 3T3 cells were engineered to express ErbB2 with Exon 20 YVMA insertion (HER2-YVMA (SEQ ID NO: 2); Assay 4) or EGFR wild type (EGFR WT; Assay 5) with constructs obtained from GenScript and grown in DMEM supplemented with 10% fetal bovine serum and 15 μg/ml blasticidin. […] Serially diluted compounds were added to the plates for 1 hour at 37° C./5% CO2. EGFR WT cells were stimulated with 100 ng/ml rEGF for an additional 10 minutes at 37° C./5% CO2. […]
pIC50: −log10 of the molar value.
Recorded endpoint: pIC50

* C=CC(=O)N1CCN(c2ccc3ncnc(Nc4cc(Cl)c(Oc5ccn6ncnc6c5)cc4F)c3n2)C[C@@H]1C1CC1 [Example 286] | 7.78
* C=CC(=O)N(C)[C@@H]1CCN(c2ccc3ncnc(Nc4ccc(Oc5ccn6ncnc6c5)c(C)c4F)c3n2)C1 [Example 349] | 7.45
* C=CC(=O)N1C[C@@H](c2ccc3ncnc(Nc4ccc(Oc5ccn6ncnc6c5)c(C)c4F)c3n2)C[C@@H]1C (mixture of isomers) [Example 385] | 7.53
* C=CC(=O)N1CCN(c2ccc3ncnc(Nc4ccc(Oc5ccn6ncnc6c5)c(C)c4F)c3n2)C[C@H]1C(C)(C)C [Example 303] | 7.74
* C=CC(=O)N1[C@@H](C)CN(c2ccc3ncnc(Nc4ccc(Oc5ccc6c(c5)ncn6C)c(C)c4F)c3n2)C[C@@H]1C [Example 256] | 7.17
* C=CC(=O)N1C[C@H]2CC[C@@H]1[C@H](c1ccc3ncnc(Nc4ccc(Oc5ccn6ncnc6c5)c(C)c4F)c3n1)C2 [Example 397] | 7.31
* C=CC(=O)N1CCN(c2ccc3ncnc(Nc4ccc(Oc5ccn6ncnc6c5)c(Cl)c4F)c3n2)C[C@H]1C(C)(C)C [Example 311] | 7.79
* C=CC(=O)N1CCN(c2ccc3ncnc(Nc4ccc(Oc5ccn6ncnc6c5)c(C(F)F)c4)c3n2)CC1(C)C [Example 451] | 7.31
* C=CC(=O)N1CC[C@H](c2ccc3ncnc(Nc4ccc(Oc5cnc6c(c5)ncn6C)c(Cl)c4)c3n2)CC1(C)C (racemic) [Example 272] | 7.11
* C=CC(=O)N1C2CCC1CN(c1ccc3ncnc(Nc4cc(C)c(Oc5ccn6ncnc6c5)cc4F)c3n1)C2 [Example 443] | 7.59
* C=CC(=O)N1CCN(c2ccc3ncnc(Nc4cc(Cl)c(Oc5cnc6c(c5)ncn6C)cc4F)c3n2)C[C@@H]1C1CC1 [Example 440] | 7.37
* C=CC(=O)N1C[C@H](c2ccc3ncnc(Nc4ccc(Oc5ccn6ncnc6c5)c(C)c4F)c3n2)C[C@H]1C (mixture of isomers) [Example 387] | 7.22
* C=CC(=O)N1CCN(c2ccc3ncnc(Nc4ccc(Oc5ccn6ncnc6c5)c(C)c4F)c3n2)CC12CCC2 [Example 308] | 8.08
